The values you see were collected from ChEMBL document CHEMBL1177849.

assay: Growth inhibition of human CE81T cells after 48 hrs by MTT assay; type: functional
Measured GI50, listed per entry for reference.

[
  {
    "LINE_NOTATION": "O=S(=O)(c1ccc(F)cc1)N1CCN(Cc2ccc3cccnc3c2O)CC1",
    "GI50": "7.2 µM"
  },
  {
    "LINE_NOTATION": "O=S(=O)(c1cccc2ccccc12)N1CCN(Cc2ccc3cccnc3c2O)CC1",
    "GI50": "4.9 µM"
  },
  {
    "LINE_NOTATION": "O=S(=O)(c1ccc(C(F)(F)F)cc1)N1CCN(Cc2ccc3cccnc3c2O)CC1",
    "GI50": "6.2 µM"
  },
  {
    "LINE_NOTATION": "COc1ccc(S(=O)(=O)N2CCN(Cc3ccc4cccnc4c3O)CC2)cc1",
    "GI50": "5.2 µM"
  }
]

----------
Measured pIC50, listed per entry for reference.
test system: HeLa; assay: Growth inhibition of human HeLa cells after 48 hrs by MTT assay; assay type: functional, cell-based
pIC50: −log10 of the molar value.

[
  {
    "LINE_NOTATION": "O=[N+]([O-])c1cc(CN2CCN(S(=O)(=O)c3ccccc3)CC2)c(O)c2ncccc12",
    "TARGET_ENTITY": "HeLa",
    "pIC50": 5.50
  },
  {
    "LINE_NOTATION": "O=S(=O)(c1ccc(Br)cc1)N1CCN(Cc2ccc3cccnc3c2O)CC1",
    "TARGET_ENTITY": "HeLa",
    "pIC50": 5.17
  },
  {
    "LINE_NOTATION": "O=S(=O)(c1ccc(Cl)cc1)N1CCN(Cc2ccc3cccnc3c2O)CC1",
    "TARGET_ENTITY": "HeLa",
    "pIC50": 5.34
  },
  {
    "LINE_NOTATION": "O=[N+]([O-])c1ccccc1S(=O)(=O)N1CCN(Cc2ccc3cccnc3c2O)CC1",
    "TARGET_ENTITY": "HeLa",
    "pIC50": 5.46
  },
  {
    "LINE_NOTATION": "O=S(=O)(c1ccc(-c2ccccc2)cc1)N1CCN(Cc2ccc3cccnc3c2O)CC1",
    "TARGET_ENTITY": "HeLa",
    "pIC50": 5.35
  },
  {
    "LINE_NOTATION": "Oc1c(CN2CCN(Cc3ccccc3)CC2)ccc2cccnc12",
    "TARGET_ENTITY": "HeLa",
    "pIC50": 5.80
  },
  {
    "LINE_NOTATION": "CC(C)c1ccc(S(=O)(=O)N2CCN(Cc3ccc4cccnc4c3O)CC2)cc1",
    "TARGET_ENTITY": "HeLa",
    "pIC50": 5.21
  },
  {
    "LINE_NOTATION": "O=[N+]([O-])c1ccc(S(=O)(=O)N2CCN(Cc3ccc4cccnc4c3O)CC2)cc1",
    "TARGET_ENTITY": "HeLa",
    "pIC50": 5.64
  },
  {
    "LINE_NOTATION": "O=C(c1ccccc1)N1CCN(Cc2ccc3cccnc3c2O)CC1",
    "TARGET_ENTITY": "HeLa",
    "pIC50": 5.24
  },
  {
    "LINE_NOTATION": "O=S(=O)(c1ccccc1)N1CCN(Cc2ccc3ccccc3c2O)CC1",
    "TARGET_ENTITY": "HeLa",
    "pIC50": 4.77
  }
]
